# Test system: cGMP-inhibited 3',5'-cyclic phosphodiesterase 3A (Homo sapiens, UniProt Q14432)
# Sequence (Q14432 whole entry): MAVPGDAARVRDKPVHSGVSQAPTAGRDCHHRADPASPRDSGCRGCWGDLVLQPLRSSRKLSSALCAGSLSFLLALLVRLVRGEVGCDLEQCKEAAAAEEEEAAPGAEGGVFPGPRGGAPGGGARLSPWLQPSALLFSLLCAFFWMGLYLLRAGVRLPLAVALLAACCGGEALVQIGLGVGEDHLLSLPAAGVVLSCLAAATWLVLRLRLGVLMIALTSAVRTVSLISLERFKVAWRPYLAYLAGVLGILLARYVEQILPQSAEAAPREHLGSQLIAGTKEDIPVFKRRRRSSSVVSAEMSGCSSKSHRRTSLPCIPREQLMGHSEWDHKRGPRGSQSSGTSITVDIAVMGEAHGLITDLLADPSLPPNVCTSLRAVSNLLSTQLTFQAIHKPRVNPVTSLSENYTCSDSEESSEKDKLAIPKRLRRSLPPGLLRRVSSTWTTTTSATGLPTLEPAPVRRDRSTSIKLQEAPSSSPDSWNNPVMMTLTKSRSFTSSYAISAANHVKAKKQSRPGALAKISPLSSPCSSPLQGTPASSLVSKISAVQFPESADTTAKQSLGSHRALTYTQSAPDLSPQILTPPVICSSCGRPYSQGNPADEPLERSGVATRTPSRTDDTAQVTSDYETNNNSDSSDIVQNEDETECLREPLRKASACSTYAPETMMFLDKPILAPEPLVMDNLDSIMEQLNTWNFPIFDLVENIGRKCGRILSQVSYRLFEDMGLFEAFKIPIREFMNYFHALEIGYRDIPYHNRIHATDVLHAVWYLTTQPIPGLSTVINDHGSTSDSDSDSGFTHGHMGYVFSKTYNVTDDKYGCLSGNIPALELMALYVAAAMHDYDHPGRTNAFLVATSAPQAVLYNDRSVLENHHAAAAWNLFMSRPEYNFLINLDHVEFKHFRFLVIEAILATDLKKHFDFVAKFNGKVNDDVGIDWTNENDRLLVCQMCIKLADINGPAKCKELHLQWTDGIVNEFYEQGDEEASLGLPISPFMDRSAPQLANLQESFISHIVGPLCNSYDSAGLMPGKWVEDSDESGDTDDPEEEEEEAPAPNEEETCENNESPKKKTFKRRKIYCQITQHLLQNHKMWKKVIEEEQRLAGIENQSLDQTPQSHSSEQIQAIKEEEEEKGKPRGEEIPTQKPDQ
# Test name: Inhibition of human recombinant PDE3A by fluorescence polarization assay using cGMP as substrate
Readout type: IC50 (µM)
Write the answer as a number in µM, unit excluded.

Provide the documented IC50 with cGMP-inhibited 3',5'-cyclic phosphodiesterase 3A (Homo sapiens, UniProt Q14432) as the system for CCOc1ccc(-c2cc(-c3ccsc3)[nH]c(=N)c2C#N)cc1
13.5

---

# System: HT-29
# Test name: Cytotoxicity against human HT-29 cells after 72 hrs by celltiter glo assay
# Type: functional, cell-based
# Condition summary: HT-29, 72 h
For each of the compounds below, state its log10(IC50).
Log10 applied to IC50; unit prior to transform: µM.

Which log10(IC50) value is on record for CCOc1ccccc1-c1cc(-c2ccsc2)[nH]c(=N)c1C#N ?
0.78

Try this compound next: N#Cc1c(-c2cccc(Cl)c2)cc(-c2ccccc2)[nH]c1=O
0.32

Try this compound next: CCOc1ccccc1-c1cc(-c2ccsc2)[nH]c(=O)c1C#N
0.10

Try this compound next: N#Cc1c(-c2ccccc2O)cc(-c2ccsc2)[nH]c1=O
1.66

Try this compound next: N#Cc1c(-c2ccccc2O)cc(-c2ccc(Br)cc2)[nH]c1=O
1.32

Try this compound next: COc1ccc(-c2cc(-c3ccsc3)[nH]c(=N)c2C#N)cc1
0.43

Try this compound next: COc1ccccc1-c1cc(-c2ccsc2)[nH]c(=N)c1C#N
1.54

Try this compound next: COc1ccc(OC)c(-c2cc(-c3ccc(Br)cc3)[nH]c(=N)c2C#N)c1
0.60

---

For each of the compounds below, state its inhibition of growth at 50 µM.
# System: HT-29
# Test name: Cytotoxicity against human HT-29 cells at 50 uM after 72 hrs by celltiter glo assay
# Format: functional
# Condition summary: HT-29, 72 h, read-out: GI
Don't forget the unit after the number, please.

Which inhibition of growth at 50 µM value is on record for N#Cc1c(-c2cccc(Cl)c2)cc(-c2ccccc2)[nH]c1=O ?
80%

Try this compound next: N#Cc1c(-c2ccccc2O)cc(-c2ccc(Br)cc2)[nH]c1=N
23%

Try this compound next: N#Cc1c(-c2ccccc2Cl)cc(-c2ccc(Br)cc2)[nH]c1=O
5%

Try this compound next: CCOc1ccc(-c2cc(-c3ccsc3)[nH]c(=N)c2C#N)cc1
-10%

Try this compound next: CCOc1ccccc1-c1cc(-c2ccsc2)[nH]c(=O)c1C#N
80%

Try this compound next: N#Cc1c(-c2ccccc2O)cc(-c2ccccc2Br)[nH]c1=N
28%

Try this compound next: COc1ccc(-c2cc(-c3ccc(Br)cc3)[nH]c(=O)c2C#N)c(OC)c1
0%

Try this compound next: CCOc1ccc(-c2cc(-c3ccsc3)[nH]c(=O)c2C#N)cc1
-1%

Try this compound next: N#Cc1c(-c2cccc(Cl)c2)cc(-c2ccc(Br)cc2)[nH]c1=O
7%

Try this compound next: N#Cc1c(-c2ccccc2O)cc(-c2cccc(Br)c2)[nH]c1=N
30%

Try this compound next: COc1ccc(OC)c(-c2cc(-c3ccc(Br)cc3)[nH]c(=N)c2C#N)c1
95%

Try this compound next: COc1ccc(OC)c(-c2cc(-c3ccc(Br)cc3)[nH]c(=O)c2C#N)c1
33%

Try this compound next: N#Cc1c(-c2ccccc2O)cc(-c2cccc(Br)c2)[nH]c1=O
-5%

Try this compound next: COc1ccccc1-c1cc(-c2ccsc2)[nH]c(=N)c1C#N
78%

Try this compound next: N#Cc1c(-c2ccccc2O)cc(-c2ccc(Br)cc2)[nH]c1=O
94%

Try this compound next: N#Cc1c(-c2ccccc2O)cc(-c2ccsc2)[nH]c1=N
44%

Try this compound next: COc1ccc(-c2cc(-c3ccsc3)[nH]c(=N)c2C#N)cc1
75%

Try this compound next: COc1ccc(-c2cc(-c3ccc(Br)cc3)[nH]c(=N)c2C#N)c(OC)c1
2%

Try this compound next: N#Cc1c(-c2ccsc2)cc(-c2ccccc2)[nH]c1=O
-10%

Try this compound next: N#Cc1c(-c2cccc(Cl)c2)cc(-c2ccc(Br)cc2)[nH]c1=N
7%

Try this compound next: CCOc1ccccc1-c1cc(-c2ccsc2)[nH]c(=N)c1C#N
92%

Try this compound next: N#Cc1c(-c2ccccc2O)cc(-c2ccsc2)[nH]c1=O
79%

Try this compound next: N#Cc1c(-c2ccc(Cl)cc2)cc(-c2ccsc2)[nH]c1=N
65%

---

# Test system: UniProtKB Q14432
# Test name: Inhibition of human recombinant PDE3A at 50 uM by fluorescence polarization assay using cAMP as substrate
Quick rule for you: inhibition at 20% or higher means yes, lower means no.

Hello, I need to know if N#Cc1c(-c2cccc(Cl)c2)cc(-c2ccccc2)[nH]c1=N has measured inhibition not below 20%. Thanks!
no

Try this molecule next: CCOc1ccc(-c2cc(-c3ccsc3)[nH]c(=O)c2C#N)cc1
no

Try this molecule next: COc1ccc(-c2cc(-c3ccsc3)[nH]c(=N)c2C#N)cc1
no

Try this molecule next: N#Cc1c(-c2cccc(Cl)c2)cc(-c2ccc(Br)cc2)[nH]c1=N
no

Try this molecule next: N#Cc1c(-c2cccc(Cl)c2)cc(-c2ccc(Br)cc2)[nH]c1=O
no

Try this molecule next: COc1ccc(OC)c(-c2cc(-c3ccc(Br)cc3)[nH]c(=O)c2C#N)c1
no

Try this molecule next: N#Cc1c(-c2ccccc2O)cc(-c2ccc(Br)cc2)[nH]c1=O
no

Try this molecule next: N#Cc1c(-c2ccccc2O)cc(-c2ccsc2)[nH]c1=O
yes

Try this molecule next: CCOc1ccccc1-c1cc(-c2ccsc2)[nH]c(=N)c1C#N
yes

Try this molecule next: N#Cc1c(-c2cccc(Cl)c2)cc(-c2ccccc2)[nH]c1=O
no

Try this molecule next: N#Cc1c(-c2ccccc2O)cc(-c2ccc(Br)cc2)[nH]c1=N
yes

Try this molecule next: N#Cc1c(-c2ccccc2Cl)cc(-c2ccc(Br)cc2)[nH]c1=N
yes

Try this molecule next: N#Cc1c(-c2ccsc2)cc(-c2ccccc2)[nH]c1=O
no

Try this molecule next: N#Cc1c(-c2ccccc2O)cc(-c2cccc(Br)c2)[nH]c1=N
no

Try this molecule next: COc1ccc(-c2cc(-c3ccc(Br)cc3)[nH]c(=O)c2C#N)c(OC)c1
no

Try this molecule next: N#Cc1c(-c2ccccc2O)cc(-c2ccsc2)[nH]c1=N
yes

Try this molecule next: N#Cc1c(-c2ccccc2Cl)cc(-c2ccc(Br)cc2)[nH]c1=O
no

Try this molecule next: COc1ccccc1-c1cc(-c2ccsc2)[nH]c(=O)c1C#N
no

Try this molecule next: N#Cc1c(-c2ccc(Cl)cc2)cc(-c2ccsc2)[nH]c1=O
no

Try this molecule next: CCOc1ccccc1-c1cc(-c2ccsc2)[nH]c(=O)c1C#N
no

Try this molecule next: COc1ccc(-c2cc(-c3ccc(Br)cc3)[nH]c(=N)c2C#N)c(OC)c1
yes

Try this molecule next: N#Cc1c(-c2ccc(Cl)cc2)cc(-c2ccsc2)[nH]c1=N
yes

---

# Test system: cGMP-inhibited 3',5'-cyclic phosphodiesterase 3A (Homo sapiens)
# Test name: Inhibition of human recombinant PDE3A by fluorescence polarization assay using cAMP as substrate
Readout type: IC50 (µM)
Write the answer as a number in µM, unit excluded.

Which IC50 value is on record for CCOc1ccc(-c2cc(-c3ccsc3)[nH]c(=N)c2C#N)cc1 ?
13.3

---

# Test system: UniProt Q14432
# Test name: Inhibition of human recombinant PDE3A at 50 uM by fluorescence polarization assay using cGMP as substrate
Readout type: inhibition
Don't forget the unit after the number, please.

Which inhibition value is on record for N#Cc1c(-c2ccccc2O)cc(-c2ccsc2)[nH]c1=N ?
26%

Try this compound next: CCOc1ccccc1-c1cc(-c2ccsc2)[nH]c(=O)c1C#N
20%

Try this compound next: N#Cc1c(-c2ccccc2O)cc(-c2cccc(Br)c2)[nH]c1=N
36%

Try this compound next: N#Cc1c(-c2ccsc2)cc(-c2ccccc2)[nH]c1=O
9%

Try this compound next: N#Cc1c(-c2ccccc2O)cc(-c2ccsc2)[nH]c1=O
37%

Try this compound next: COc1ccc(-c2cc(-c3ccc(Br)cc3)[nH]c(=O)c2C#N)c(OC)c1
-8%

Try this compound next: COc1ccc(OC)c(-c2cc(-c3ccc(Br)cc3)[nH]c(=O)c2C#N)c1
17%

Try this compound next: CCOc1ccccc1-c1cc(-c2ccsc2)[nH]c(=N)c1C#N
-10%

Try this compound next: N#Cc1c(-c2cccc(Cl)c2)cc(-c2ccccc2)[nH]c1=O
24%

Try this compound next: N#Cc1c(-c2ccccc2O)cc(-c2ccc(Br)cc2)[nH]c1=N
27%

Try this compound next: N#Cc1c(-c2ccc(Cl)cc2)cc(-c2ccsc2)[nH]c1=N
45%

Try this compound next: N#Cc1c(-c2cccc(Cl)c2)cc(-c2ccc(Br)cc2)[nH]c1=N
13%

Try this compound next: COc1ccccc1-c1cc(-c2ccsc2)[nH]c(=O)c1C#N
8%

Try this compound next: N#Cc1c(-c2ccccc2O)cc(-c2ccc(Br)cc2)[nH]c1=O
28%

Try this compound next: CCOc1ccc(-c2cc(-c3ccsc3)[nH]c(=O)c2C#N)cc1
0%

Try this compound next: COc1ccc(-c2cc(-c3ccsc3)[nH]c(=O)c2C#N)cc1
0%

Try this compound next: N#Cc1c(-c2ccccc2O)cc(-c2cccc(Br)c2)[nH]c1=O
45%

Try this compound next: N#Cc1c(-c2cccc(Cl)c2)cc(-c2ccccc2)[nH]c1=N
20%

Try this compound next: N#Cc1c(-c2ccccc2Cl)cc(-c2ccc(Br)cc2)[nH]c1=O
36%

Try this compound next: CCOc1ccc(-c2cc(-c3ccsc3)[nH]c(=N)c2C#N)cc1
80%

Try this compound next: N#Cc1c(-c2cccc(Cl)c2)cc(-c2ccc(Br)cc2)[nH]c1=O
21%

Try this compound next: COc1ccc(OC)c(-c2cc(-c3ccc(Br)cc3)[nH]c(=N)c2C#N)c1
20%

Try this compound next: COc1ccc(-c2cc(-c3ccc(Br)cc3)[nH]c(=N)c2C#N)c(OC)c1
70%
